test: The maximum plasma concentration was measured on rats after oral administration; assay type: ADME, organism-based; parameters: route oral; settings: rat
measurement kind: Cmax (nM)
Numeric only. Scale: nM

Requested field: Cmax. Item: CC(C)(C)OC(=O)N[C@@H](Cc1ccccc1)[C@H](O)CNC[C@@H](O)[C@H](Cc1ccccc1)NC(=O)OC(C)(C)C
240

====

assay: The oral bioavailability was measured on rats after oral administration; format: ADME, organism-based; conditions: rat, in vivo, read-out: Bioavailabiility
measurement kind: bioavailability (%)
Numeric only. Scale: %

Requested field: bioavailability. Item: CC(C)(C)OC(=O)N[C@@H](Cc1ccccc1)[C@H](O)CNC[C@@H](O)[C@H](Cc1ccccc1)NC(=O)OC(C)(C)C
40

====

target: Human immunodeficiency virus type 1 protease (Human immunodeficiency virus 1); assay: In vitro inhibition of HIV-1 protease.
Please assign a class to every record based on measured IC50, with ranges range 1: < 0.8 µM; range 2: ≥ 0.8 µM and < 4 µM; range 3: ≥ 4 µM

The following compounds have reported results that may help.
INSERT INTO assay_data (compound, classification) VALUES
  ('CN(C(=O)OC(C)(C)C)[C@@H](Cc1ccccc1)[C@H](O)CNC[C@@H](O)[C@H](Cc1ccccc1)NC(=O)OC(C)(C)C', 'range 3'),
  ('O=C(N[C@@H](Cc1ccccc1)[C@H](O)CNC[C@@H](O)[C@H](Cc1ccccc1)NC(=O)OCc1ccccc1)OCc1ccccc1', 'range 2'),
  ('CC(C)(C)OC(=O)N[C@@H](Cc1ccccc1)[C@H](O)COC[C@@H](O)[C@H](Cc1ccccc1)NC(=O)OC(C)(C)C', 'range 3'),
  ('CC(C)(C)NC(=O)N[C@@H](Cc1ccccc1)[C@H](O)CNC[C@@H](O)[C@H](Cc1ccccc1)NC(=O)OC(C)(C)C', 'range 1'),
  ('CO[C@H](CNC[C@@H](O)[C@H](Cc1ccccc1)NC(=O)OC(C)(C)C)[C@H](Cc1ccccc1)NC(=O)OC(C)(C)C', 'range 3'),
  ('CC(C)(C)OC(=O)N[C@@H](Cc1ccccc1)[C@H](O)CNC[C@@H](O)[C@H](Cc1ccccc1)NC(=O)OC(C)(C)C', 'range 1');

Note: place this compound into its band. Item: CC(C)(C)OC(=O)N[C@@H](Cc1ccccc1)[C@H](O)CNC[C@H](O)[C@H](Cc1ccccc1)NC(=O)OC(C)(C)C
range 3

Note: place this compound into its band. Item: CC(C)(C)OC(=O)N[C@H](CCNC[C@@H](O)[C@H](Cc1ccccc1)NC(=O)OC(C)(C)C)Cc1ccccc1
range 2

Note: place this compound into its band. Item: CC(C)(C)OC(=O)N[C@@H](Cc1ccccc1)[C@@H](O)CNCC(O)[C@@H](Cc1ccccc1)NC(=O)OC(C)(C)C (some centres undefined)
range 3

Note: place this compound into its band. Item: CC(C)(C)COC(=O)N[C@@H](Cc1ccccc1)[C@H](O)CNC[C@@H](O)[C@H](Cc1ccccc1)NC(=O)OCC(C)(C)C
range 3

Note: place this compound into its band. Item: CC(C)(C)OC(=O)N[C@@H](Cc1ccccc1)[C@H](O)CNC[C@@H](O)[C@H](Cc1ccccc1)NC(=O)SC(C)(C)C
range 1

Note: place this compound into its band. Item: CCC(C)C(NC(=O)OC(C)(C)C)[C@H](O)CNC[C@@H](O)C(NC(=O)OC(C)(C)C)[C@@H](C)CC (single isomer, unassigned)
range 3
